Source listed as patent US9567623B2.

Target: nanoKAZ (mutated catalytic 19 kDa domain of Oplophorus luciferase) (Oplophorus gracilirostris, UniProt Q9GV45, A31E/A60N/A81I/F95D/I117V/K70R/L54V/L99Q/M102K/N193R/P142E/Q151K/Q38R/Q45L/V71I/Y165I)
Construct: secretory signal peptide of Gaussia luciferase (GLsp) (N, cleaved yes); made in house; host or cells: CHO-K1 transiently transfected with pcDNA3-GLsp-nanoKAZ; unpurified culture medium used as the enzyme solution
Sequence (Q9GV45 other isoform, or with tags, fused parts or gaps with the stated changes): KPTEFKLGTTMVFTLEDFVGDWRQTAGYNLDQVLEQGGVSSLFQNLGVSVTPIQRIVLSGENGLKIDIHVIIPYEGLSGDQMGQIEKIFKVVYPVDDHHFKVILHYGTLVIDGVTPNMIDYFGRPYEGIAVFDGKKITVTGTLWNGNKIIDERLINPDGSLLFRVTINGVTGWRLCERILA
Assay: Luminescence activity of secreted codon-optimized nanoKAZ domain protein with coelenterazine analogs as substrates
Type: biochemical
Settings: relative to coelenterazine = 1.0; integrated for 60 seconds
Endpoint: Relative amount of integrated luminescence intensity (1 min.)

Oc1ccc(-c2cn3c(O)c(Cc4ccccc4)nc3c(Cc3ccccc3)n2)cc1 [h-Coelenterazine] :: 10.1
O=c1c(Cc2ccc(F)cc2)nc2c(Cc3ccccc3)[nH]c(-c3ccc(O)cc3)cn1-2 [f-Coelenterazine] :: 11.1
O=c1c(Cc2ccco2)nc2c(Cc3ccccc3)[nH]c(-c3ccccc3)cn1-2 [Furimazine] :: 5.7

Q: So what's the measured Relative amount of integrated luminescence intensity (1 min.) for this one? O=c1c(Cc2ccc(F)cc2)nc2c(Cc3ccccc3)[nH]c(-c3ccccc3)cn1-2 [C6d-f-Coelenterazine, C6d-f-coelenterazine]
Result: 10.1

###

Test system: Gaussia luciferase
Experiment: Substrate specificity of various luciferases: Gaussia luciferase
Format: biochemical
Details: relative to coelenterazine = 100
Description: The preparation of various luciferases and the determination of their luminescence activities were carried out in accordance with the methods as previously reported. The catalytic 19 kDa domain of Oplophorus luciferase was produced by the method described in Inouye S. & Sasaki S. (2007) Protein Express. Purif. 56, 261-268, Gaussia luciferase by the method described in Inouye S & Sahara Y. (2008) Biochem. Biophys. Res. Commun. […]
Endpoint: Relative Amount of Integrated Luminescence Intensity (1 min, %)

O=c1c(Cc2ccc(F)cc2)nc2c(Cc3ccccc3)[nH]c(-c3ccccc3)cn1-2 [C6d-f-Coelenterazine, C6d-f-coelenterazine] :: (0) %
O=c1c(Cc2ccco2)nc2c(Cc3ccccc3)[nH]c(-c3ccccc3)cn1-2 [Furimazine] :: (0) %

###

Target: Renilla luciferase (Renilla reniformis, UniProt P27652)
Construct: made in house
Sequence (P27652 1-311): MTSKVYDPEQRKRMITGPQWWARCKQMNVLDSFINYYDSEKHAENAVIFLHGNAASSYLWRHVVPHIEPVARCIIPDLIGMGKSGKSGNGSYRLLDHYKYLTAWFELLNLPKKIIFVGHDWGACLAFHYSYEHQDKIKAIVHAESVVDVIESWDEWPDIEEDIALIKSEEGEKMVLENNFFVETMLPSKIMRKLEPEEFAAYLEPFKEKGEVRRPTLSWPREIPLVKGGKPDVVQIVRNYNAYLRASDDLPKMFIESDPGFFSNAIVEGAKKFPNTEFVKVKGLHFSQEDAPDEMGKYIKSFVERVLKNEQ
Assay: Substrate specificity of various luciferases: Renilla luciferase
Format: biochemical
Conditions: relative to coelenterazine = 100
// reported Maximum Luminescence Intensity (Imax, %) for each item listed
Mention the unit after the number when you answer.

O=c1c(Cc2ccc(F)cc2)nc2c(Cc3ccccc3)[nH]c(-c3ccccc3)cn1-2 :: 0.07%
O=c1c(Cc2ccco2)nc2c(Cc3ccccc3)[nH]c(-c3ccccc3)cn1-2 :: 0.01%
O=c1c(Cc2ccc(F)cc2)nc2c(Cc3ccccc3)[nH]c(-c3ccc(O)cc3)cn1-2 :: 65.3%

Turning now to a further compound:
Q: Need Maximum Luminescence Intensity (Imax, %), item Oc1ccc(-c2cn3c(O)c(Cc4ccccc4)nc3c(Cc3ccccc3)n2)cc1
Result: 68.5%
